Values of pIC50 reported for Beta-glucuronidase (Bos taurus) appear below.
pIC50: −log10 of the molar value.
ASSAY ENDPOINT: pIC50

Example cases with answers are listed next.
CHEMICAL STRING: Clc1cc(Cl)c2nc(-c3ccccn3)[nH]c2c1
MEASUREMENT TARGET: Beta-glucuronidase (Bos taurus)
Sequence (A3KMY8 whole entry): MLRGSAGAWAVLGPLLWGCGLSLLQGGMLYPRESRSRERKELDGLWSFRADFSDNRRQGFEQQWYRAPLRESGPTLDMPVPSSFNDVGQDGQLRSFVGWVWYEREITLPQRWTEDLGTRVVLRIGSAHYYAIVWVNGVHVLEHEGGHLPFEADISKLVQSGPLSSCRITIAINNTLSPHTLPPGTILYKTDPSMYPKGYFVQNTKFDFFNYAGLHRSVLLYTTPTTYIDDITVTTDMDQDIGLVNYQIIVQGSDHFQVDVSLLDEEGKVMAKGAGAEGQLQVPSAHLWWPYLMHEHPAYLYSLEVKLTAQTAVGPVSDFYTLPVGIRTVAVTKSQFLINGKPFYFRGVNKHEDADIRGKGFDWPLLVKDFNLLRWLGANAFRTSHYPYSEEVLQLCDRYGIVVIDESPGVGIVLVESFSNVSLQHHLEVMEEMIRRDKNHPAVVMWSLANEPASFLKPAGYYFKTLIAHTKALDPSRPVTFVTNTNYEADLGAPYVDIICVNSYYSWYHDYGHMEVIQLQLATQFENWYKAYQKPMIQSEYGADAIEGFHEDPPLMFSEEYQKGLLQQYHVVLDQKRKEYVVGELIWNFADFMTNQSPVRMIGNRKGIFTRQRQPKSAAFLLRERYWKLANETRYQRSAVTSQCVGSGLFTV
pIC50: 4.06
//
CHEMICAL STRING: Oc1ccc(-c2nc3c(Cl)cc(Cl)cc3[nH]2)cc1O
MEASUREMENT TARGET: Beta-glucuronidase (Bos taurus)
pIC50: 4.34

[a] Oc1cccc(-c2nc3c(Cl)cc(Cl)cc3[nH]2)c1O
[b] Oc1ccc(-c2nc3c(Cl)cc(Cl)cc3[nH]2)c(O)c1
# argmax over pIC50 for candidates a and b Please indicate the selected item by its label.
b
(b: 4.85, a: 4.22)
